# test.summary: in vivo
# test.context: rat
measured.property: concentration at 24 h

Give the measured concentration at 24 h of OC(c1cc(C(F)(F)F)nc2c(C(F)(F)F)cccc12)C1CCCCN1 (stereo not shown) .
~0.5 µM

The reported numbers originate from paper PMC7309601.
